Test system: A498 renal
Test: NCI-60 one-dose screen, 48 h (100 = growth as untreated, 0 = no growth, -100 = all killed)
Details: 10 µM unless noted
Compounds without any hit were thinned out: in the full panel of roughly 83,000, 20% have a hit.
This listing pairs compounds with measured growth.

{"smiles representation": "Clc1ccc2c(NCCCNc3nc(-n4ccnc4)nc4ccccc34)ccnc2c1", "unit symbol": "%", "growth": 78.2}
{"smiles representation": "C(=C\\c1nccc2c1[nH]c1ccccc12)/c1ccccc1", "unit symbol": "%", "growth": 40.4}
{"smiles representation": "CCCCN(CCCC)CCCn1c(-c2ccccc2)ccc1-c1ccccc1", "unit symbol": "%", "growth": 59.3}

---

Test system: NCI-H226 lung
Test: NCI-60 one-dose screen, 48 h (100 = growth as untreated, 0 = no growth, -100 = all killed)
Details: 10 µM unless noted
About 83,000 compounds went through this panel and 20% of them were active in at least one assay; those are over-represented in the sample as a whole.

{"compound": "COc1cc2c(cc1-c1c(C)noc1C)ncc1nc(C3CCC(F)(F)CC3)n([C@H](C)COC(F)F)c12", "growth [%]": 51.1}
{"compound": "O=[N+]([O-])c1cnc(N2CCN(CC3CC3)CC2)nc1N1CCN(CC2CC2)CC1", "growth [%]": 81.3}
{"compound": "CSc1ccc(SC2c3ccc(C)cc3Oc3nc(N)c(C#N)c(N)c32)cc1 (stereo not drawn)", "growth [%]": -88.7}
{"compound": "C/C1=C\\CC[C@@]2(C)O[C@H]2[C@H]2OC(=O)C(CN3CCN(CC4C(=O)O[C@H]5[C@H]4CC/C(C)=C/CC[C@@]4(C)O[C@@H]54)CC3)[C@@H]2CC1 (stereo partly drawn)", "growth [%]": 99.2}
{"compound": "NC(=O)c1cc(Cl)ccc1NC(=O)/C=C/c1ccccc1", "growth [%]": 63.6}
{"compound": "CC(=O)Nc1ccc(S(=O)(=O)Nc2cccc(-c3nc(-c4ccc(NC(=O)c5cccnc5)cc4Cl)no3)c2)cc1", "growth [%]": 57.9}
{"compound": "COc1ccc(C2C(C#N)=C(N)Oc3n[nH]c(-c4cccs4)c32)cc1I (stereo not drawn)", "growth [%]": 98.3}
{"compound": "CN1C(=O)C2(SCC(C(=O)NCc3ccccc3)N2C(=O)C2CCCCC2)c2ccccc21 (stereo not drawn)", "growth [%]": 84.3}

---

System: ACHN renal
Assay: NCI-60 one-dose screen, 48 h (100 = growth as untreated, 0 = no growth, -100 = all killed)
Conditions: 10 µM unless noted
Compounds without any hit were thinned out: in the full panel of roughly 83,000, 20% have a hit.
Tag: Fulfilled if measured growth is not below 60%, Not fulfilled if it is.

{"compound": "Cc1cc(N2CCSCC2)nc(NC2CCCC(Nc3ccnc4cc(Cl)ccc34)C2)n1 (stereo not given)", "assayed system": "ACHN renal", "group label": "Not fulfilled"}
{"compound": "Clc1ccc2c(NCCNc3nc(N4CCOCC4)nc4ccccc34)ccnc2c1", "assayed system": "ACHN renal", "group label": "Not fulfilled"}
{"compound": "COc1cccc(-c2nc3sccn3c2-c2ccnc(NCCNS(=O)(=O)c3ccc(F)cc3)c2)c1", "assayed system": "ACHN renal", "group label": "Not fulfilled"}
{"compound": "CSc1nc(NCc2ccccc2)c(C#N)c(-c2cccc([N+](=O)[O-])c2)n1", "assayed system": "ACHN renal", "group label": "Fulfilled"}
{"compound": "CSc1ccc(-c2n[nH]nc2-c2cc3ccccc3s2)cc1", "assayed system": "ACHN renal", "group label": "Fulfilled"}

---

Tested on: KM12 colon
Test: NCI-60 one-dose screen, 48 h
Conditions: 10 µM unless noted
Compounds without any hit were thinned out: in the full panel of roughly 83,000, 20% have a hit. Activity calls are given as the source filed them. How the source made its calls: active means growth percent below 10; inactive means the rest.
Outcome codes: active, inactive

{"molecule": "COC(=O)c1cccc(NC(=O)c2ccc(-c3cccc(N)c3)o2)c1", "assayed system": "KM12 colon", "group label": "inactive"}
{"molecule": "COc1cc(-c2nn(-c3ccc(C)cc3)cc2C(=O)O)ccc1O", "assayed system": "KM12 colon", "group label": "inactive"}
{"molecule": "CCN(CC)c1ccc2c(c1)Oc1nc(N)c(C#N)c(N)c1C2Sc1ccc(SC)cc1 (stereo not drawn)", "assayed system": "KM12 colon", "group label": "active"}
{"molecule": "O=c1c2c3c(sc2nc(N/N=C/c2cn(-c4ccccc4)nc2-c2ccc(Cl)cc2)n1Cc1ccccc1)CCCC3", "assayed system": "KM12 colon", "group label": "inactive"}
{"molecule": "O=C1c2cc3c(cc2-c2c1c1ccc(F)cc1c(=O)n2C[C@H](O)[C@@H](O)[C@H](O)CO)OCO3", "assayed system": "KM12 colon", "group label": "active"}
{"molecule": "CSc1ccc(SC2c3ccc(C)cc3Oc3nc(N)c(C#N)c(N)c32)cc1 (stereo not drawn)", "assayed system": "KM12 colon", "group label": "active"}
{"molecule": "CC(=O)OC[C@H]1O[C@H](OC(C)=O)[C@H](NC(=O)/C=C/CCl)[C@@H](OC(C)=O)[C@@H]1OC(C)=O", "assayed system": "KM12 colon", "group label": "inactive"}
{"molecule": "C=C1C(=O)O[C@H]2[C@H]1CC/C(COC(=O)NCc1ccc(OC)c(OC)c1)=C\\CC[C@@]1(C)O[C@@H]21", "assayed system": "KM12 colon", "group label": "inactive"}

---

Tested on: PC-3 prostate
Assay: NCI-60 one-dose screen, 48 h (100 = growth as untreated, 0 = no growth, -100 = all killed)
Settings: 10 µM unless noted
Compounds without any hit were thinned out: in the full panel of roughly 83,000, 20% have a hit.
Note to self: class labels come from recorded growth, ranges listed here: interval 1 (below 40%), interval 2 (40% to below 90%), interval 3 (90% or more)

{"compound": "COc1cc2c(cc1-c1c(C)noc1C)ncc1nc(C3CCCCC3)n([C@H](C)COC(F)F)c12", "group label": "interval 1"}
{"compound": "O=C1CC(=NCC(=O)n2c(-c3ccccc3)nc3ccccc32)NN1", "group label": "interval 3"}
{"compound": "COc1cccc2c1C(=O)c1c(O)c3c(c(O)c1C2=O)C[C@](O)(C(=O)CO)C[C@H]3O[C@@H]1C[C@@H](NC(=O)CCCN(C)C2(c3ccc(F)cc3)CC3CCC2C3)[C@H](O)[C@@H](C)O1 (some centres not stated)", "group label": "interval 1"}
{"compound": "COc1ccc(-c2cc(=O)c3c(OC)c4ccoc4cc3o2)cc1", "group label": "interval 2"}
{"compound": "COc1cc(/C=C/c2cc(O)c3cc(C(C)=O)c(=O)oc3c2)cc2c1O[C@]1(C)CC[C@@H](O)C(C)(C)[C@H]1C2", "group label": "interval 1"}
{"compound": "COc1ccc(/C=C\\c2cc(OC)c(OC)c(OC)c2)cc1OCC(=O)Nc1ccc2nc(C)sc2c1", "group label": "interval 1"}
{"compound": "CN1C(=O)C2(SCC(C(=O)NCc3ccccc3)N2C(=O)C2CCCCC2)c2ccccc21 (configuration not stated)", "group label": "interval 2"}
{"compound": "O=C1OC(c2ccccc2)C(O)=C1c1ccccc1 (configuration not stated)", "group label": "interval 3"}

---

Tested on: A549/ATCC NSCLC
Assay: NCI-60 one-dose screen, 48 h
Conditions: 10 µM unless noted
The panel holds about 83,000 compounds, 20% with a hit somewhere; the sample as a whole holds those more often. Activity calls are given as the source filed them. The calls were made as follows: active = growth percent below 10; inactive = the rest.
Outcome codes: 1 for active, 0 for inactive

{"compound": "Cc1cc(NS(=O)(=O)c2ccc(-c3cnc(C4CC4)o3)cc2)ccc1Cl", "assayed system": "A549/ATCC NSCLC", "group label": 0}
{"compound": "O=c1c(F)cn(Cc2ccccc2CCl)c(=O)n1Cc1ccccc1CCl", "assayed system": "A549/ATCC NSCLC", "group label": 1}
{"compound": "N#Cc1c(-c2ccc(Cl)cc2)nc(NN=Cc2ccco2)nc1N1CCOCC1", "assayed system": "A549/ATCC NSCLC", "group label": 0}
{"compound": "COc1ccc(-c2nc3ccc(-c4nc5ccc(N6CCN(C)CC6)cc5[nH]4)cc3[nH]2)cc1OC", "assayed system": "A549/ATCC NSCLC", "group label": 0}
{"compound": "C=C(C)[C@@H]1CC[C@]2(C(=O)OC)CC[C@]3(C)[C@H](CC[C@@H]4[C@@]5(C)C/C(=C/c6ccc(OC)cc6)C(=O)C(C)(C)[C@@H]5CC[C@]43C)[C@@H]12", "assayed system": "A549/ATCC NSCLC", "group label": 0}
{"compound": "COc1cccc(NC(=O)c2sc3nc(C)c(C(C)=O)cc3c2N)c1", "assayed system": "A549/ATCC NSCLC", "group label": 0}
{"compound": "Cc1cc2nc3[nH]c4ccccc4c3nc2cc1C", "assayed system": "A549/ATCC NSCLC", "group label": 0}
{"compound": "COc1cccc(-c2nc3sccn3c2-c2ccnc(NCCCNS(=O)(=O)c3c(Cl)cccc3Cl)c2)c1", "assayed system": "A549/ATCC NSCLC", "group label": 0}
{"compound": "CCOc1ccc(C(C)=O)cc1NC(=O)c1cccc(-c2nnn(CC)n2)c1", "assayed system": "A549/ATCC NSCLC", "group label": 0}
{"compound": "Cc1oc(-c2ccc(Cl)cc2Cl)cc1C(=O)Nc1nccs1", "assayed system": "A549/ATCC NSCLC", "group label": 0}
{"compound": "COc1ccc(O)c(N=Nc2nccs2)c1", "assayed system": "A549/ATCC NSCLC", "group label": 0}
{"compound": "CSc1ccc(-c2n[nH]nc2-c2cc3ccccc3s2)cc1", "assayed system": "A549/ATCC NSCLC", "group label": 0}
{"compound": "Cn1cc(C(=O)c2nc(-c3c[nH]c4ccc(F)cc34)no2)c2cc(F)ccc21", "assayed system": "A549/ATCC NSCLC", "group label": 0}
{"compound": "CN(C)[C@@H]1C(=O)C(C(=O)NCc2nc3[nH]cnc(=S)c3[nH]2)=C(O)[C@@]2(O)C(=O)C3=C(O)c4c(O)cccc4[C@@](C)(O)[C@H]3C[C@@H]12", "assayed system": "A549/ATCC NSCLC", "group label": 0}
{"compound": "O=C1OCC2=C1C(c1ccncc1)c1cc3c(cc1N2CCO)OCO3 (configuration not stated)", "assayed system": "A549/ATCC NSCLC", "group label": 0}
{"compound": "C#CCOc1ccc2ncnc(NCc3cccc(NC(=O)CCl)c3)c2c1", "assayed system": "A549/ATCC NSCLC", "group label": 0}
{"compound": "O=C1C=C(OCC=C(Cl)Cl)C(=O)c2ccccc21", "assayed system": "A549/ATCC NSCLC", "group label": 0}
